// % Change Compared to pH 7.4 + Calcium lookup, one value per entry
Target: T1, recombinant, soluble human ASGR-1 (human, UniProt P07306 62-291)
T1 construct: biotinylated in the binning assay; also called soluble huASGR-1; Soluble ASGR-1 (Amgen)
T1 sequence: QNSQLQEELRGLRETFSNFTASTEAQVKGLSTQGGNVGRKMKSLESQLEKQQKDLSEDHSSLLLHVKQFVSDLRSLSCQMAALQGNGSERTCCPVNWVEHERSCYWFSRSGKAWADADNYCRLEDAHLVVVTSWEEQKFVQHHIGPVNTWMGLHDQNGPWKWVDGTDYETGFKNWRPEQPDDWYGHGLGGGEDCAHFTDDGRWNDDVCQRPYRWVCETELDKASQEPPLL
Assay: Octet BLI dissociation, pH 7.4 minus calcium
All answers are understood in %, so give the number only.

# annotated cases, reported % Change Compared to pH 7.4 + Calcium shown
{"BINDER": "5E5 (antibody, V domains shown, hybridoma mAb) VH: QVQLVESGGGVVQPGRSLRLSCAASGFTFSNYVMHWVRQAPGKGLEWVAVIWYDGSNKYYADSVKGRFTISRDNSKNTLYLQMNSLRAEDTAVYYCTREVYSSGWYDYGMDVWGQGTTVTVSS VL: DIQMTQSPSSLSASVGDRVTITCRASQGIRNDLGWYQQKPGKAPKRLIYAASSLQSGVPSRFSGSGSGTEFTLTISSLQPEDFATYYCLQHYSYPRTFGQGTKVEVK", "% Change Compared to pH 7.4 + Calcium (%)": 7}
{"BINDER": "148E10 (antibody, V domains shown, hybridoma mAb) VH: QVQLVESGGGVVQPGRSLRLSCAASGFTFSSYGMHWVRQAPGKGLEWVAVIWFDGSNKYYVDSVKDRFTISRDNSKNTLYLQMNSLRAEDTAVYYCARDRVEGSGTPYYYYGMDVWGQGTTVTVSS VL: SYELTQPPSVSVSPGQTASITCSGDKLGNKYVCWYQQRPGHAAVLIIYQDSKRPSGIPERFSGSNSGNTATLTISGTQAMDEADYFCQAWDRNTYVVFGGGTKLTVL", "% Change Compared to pH 7.4 + Calcium (%)": 7}
{"BINDER": "74H7 (antibody, V domains shown, hybridoma mAb) VH: QVQLQQWGAGLLKPSEPLSLTCAVYGGSFSGPYWSWIRQPPGKGLEWIGEINHSGSTNYNPSLKSRVTISVDTSKNQFSLKLTSVTAADTAVYYCARDYGGLDVWGQGTTVTVSS VL: ELVLTQSPGTLSLSPGERATLSCRASQNIYSSYLAWYQQKPGQAPRLLIYGASSRATGIPDRFSGSGSGTDFTLTISRLEPEDFAVYCCQQYESSPWTFGQGTKVEIK", "% Change Compared to pH 7.4 + Calcium (%)": 1}

Write down % Change Compared to pH 7.4 + Calcium measured for item 60D2 (antibody, V domains shown, hybridoma mAb) VH: EVQLVESGGGLVQPGGSLRLSCGASGFTFSSYSMNWVRQAPGKGLEWVSYISESSNIIYYTDSVKGRFTISRDNAMNSLYLQMNSLRDEDTAVYYCARADTPMVLYFYGMDVWGQGTTVTVSS VL: SYELTQPPSVSVSPGQTASITCSGNKLGDKYASWYQQRPGQSPVLVIYQDNKRPSGIPERFSGSNSGNTATLTISGTQTMDEADYYCQAWDNNTVVFGGGTKLTVL
20

Write down % Change Compared to pH 7.4 + Calcium measured for item 194A4 (antibody, V domains shown, hybridoma mAb) VH: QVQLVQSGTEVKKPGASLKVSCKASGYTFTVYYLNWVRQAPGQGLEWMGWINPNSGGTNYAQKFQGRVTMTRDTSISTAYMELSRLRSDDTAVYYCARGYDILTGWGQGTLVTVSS VL: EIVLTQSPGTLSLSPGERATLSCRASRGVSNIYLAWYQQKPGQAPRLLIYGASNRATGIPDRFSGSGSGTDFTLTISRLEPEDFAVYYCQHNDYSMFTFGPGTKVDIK
-1

Write down % Change Compared to pH 7.4 + Calcium measured for item 72G9 (antibody, V domains shown, hybridoma mAb) VH: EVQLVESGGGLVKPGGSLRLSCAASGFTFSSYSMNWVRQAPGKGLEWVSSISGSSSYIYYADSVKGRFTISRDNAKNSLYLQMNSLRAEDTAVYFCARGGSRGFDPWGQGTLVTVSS VL: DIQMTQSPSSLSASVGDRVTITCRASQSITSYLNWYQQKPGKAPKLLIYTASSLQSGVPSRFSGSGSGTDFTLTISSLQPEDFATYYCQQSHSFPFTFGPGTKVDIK
1
